Target: T1, full-length mouse CD70 with C-terminal V5 tag (mouse, UniProt O55237 1-195)
T1 construct: On transfected CHO cells; also called murine CD70
T1 sequence: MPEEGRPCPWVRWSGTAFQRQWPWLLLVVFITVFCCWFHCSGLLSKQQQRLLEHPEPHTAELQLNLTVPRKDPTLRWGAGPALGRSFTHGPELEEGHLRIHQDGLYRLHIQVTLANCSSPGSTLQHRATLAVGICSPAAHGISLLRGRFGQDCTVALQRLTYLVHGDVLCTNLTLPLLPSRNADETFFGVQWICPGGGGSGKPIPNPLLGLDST
Experiment: FACS on CHO cells, periplasmic scFv
quantity name: binding result

For orientation, consider the following solved cases.
[
  {
    "binder": "CD70-52 (scFv, As m32) scFv: QVQLQESGPGLVKPSETLSLTCTVSGGSVSTDGYYWSWIRQPPGKGLEWIGYIYYSGSTNYNPSLKSRVTISVDTSKNQFSLKLSSVTAADTAVYYCARGIGLGFEYWGQGTLVTVSSGGGGSGGGGSGGGGSSYVLTQLSSVSVAPGQTARITCGGNNIGSKSVHWYQQKPGQAPVLVVYDDSDRPSGIPERFSGSNSGNTATLTISRVEAGDEADYYCQVWDRSSDQDVVFGGGTKLTVL",
    "binding result": "no binding"
  },
  {
    "binder": "CD70-28 (scFv, As m32) scFv: EVQLLESGGGLVQPGGSLRLSCAASGFTFSTYAMSWVRQAPGKGLEWVSLISGSGGRTYYADSVKGRFTISRDNSKNTLYLQMNSLRAEDTAVYYCAKHDYSNYPYFDYWGQGTLVTVSSGGGGSGGGGSGGGGSEIVLTQSPGTLSLSPGERATLSCRASQSVRSNYLAWYQQKPGQAPRLLIYGASNRATGIPDRFSGSGSGTDFTLTISRLEPEDFAVYSCQQYGISPPTFGGGTKVEIK",
    "binding result": "no binding"
  },
  {
    "binder": "CD70-44 (scFv, As m32) scFv: EVQLLESGGGLVQPGGSLRLSCAASGFTFSSYAMSWVRQAPGKGLEWVSVISDSGGITDFADSVKGRFIISRDNSRNTLYLQMNSLRAEDTAVYFCARHDYSNYFFFDYWGQGTLVTVSSGGGGSGGGGSGGGGSDIQMTQSPSSLSASVGDRVTITCRASQDISNYLNWYQQKSGKAPELLIYAASSLQSGVPSRFSGSGSGTDFTLTISSLQPEDFATYYCQQSYISPPTFGQGTKVEIK",
    "binding result": "no binding"
  },
  {
    "binder": "CD70-25 (scFv, As m32) scFv: EVQLLESGGGMVQPGGSLRLSCAASGFTFSSYAMSWVRQAPGKGLEWVSAISGSGGRTFYADSVEGRFTISRDNSKNTLYLQMNSLRAEDTAVYYCAKHDYSNYPYFDYWGQGTLVTVSSGGGGSGGGGSGGGGSEIVLTQSPGTLSLSPGERATLSCRASQSVRSNYLAWYQQKPGQAPRLLIYGASSRATGIPDRFSGSGSGTDFTLTISRLEPEDFAVYYCQQYGDLPFTFGPGTKVEIK",
    "binding result": "no binding"
  },
  {
    "binder": "CD70-6 (scFv, As m32) scFv: QVQLQESGPGLVKPSQTLSLTCTVSGDSIISGGYYWSWIRQHPGKCLEWIGYIFYSGSTDYNPSLKSRVTISVDTSKNQFSLKLSSVTAADTAVYYCARSGYSYALFDHWGQGTLVTVSSGGGGSGGGGSGGGGSDIQMTQSPSSLSASVGDRVTISCRASQFIGRYFNWYQQQPGKAPKVLIYAESSLQSGVPSRFSGSGSGTEFTLTISSLQPEDFARYYCQQSYSTPFTFGCGTKVEIK",
    "binding result": "no binding"
  },
  {
    "binder": "CD70-42 (scFv, As m32) scFv: EVQLLESGGGLVQPGGSLRLSCAASGFTFSTYAMSWVRQAPGKGLEWVSLISGSGGRTYYADSVKGRFTISRDNSKNTLYLQMNSLRAEDTAVYYCAKHDYSNYPYFDYWGQGTLVTVSSGGGGSGGGGSGGGGSEIVLTQSPGTLSLSPGERATLSCRASQGVRSSYLAWYQQKPGQAPRLLIYGASSRATGIPDRFSGSGSGTDFTLTINRLEPEDFAVYYCQQYGSSPPTFGGGTKVDIK",
    "binding result": "no binding"
  }
]

Using the record for CD70-16 (scFv, As m32) scFv: EVQLLESGGGMVQPGGSLRLSCAASGFTFSSYAMSWVRQAPGKGLEWVSAISGSGGRTFYADSVEGRFTISRDNSKNTLYLQMNSLRAEDTAVYYCAKHDYSNYPYFDYWGQGTLVTVSSGGGGSGGGGSGGGGSEIVLTQSPGTLSLSPGERATLSCRASQSIRSSYLAWYQQKPGQAPRLLIYGASSRATGIPDRFSGSGSGTDFTLTISRLEPEDFAVYYCQQYGDLPFTFGPGTKLEIK , report its binding result. no binding

Repeat with CD70-23 (scFv, As m32) scFv: EVQLLESGGGLVQPGGSLRLSCAASGFTFSVYAMSWVRQAPGKGLEWVSTISDSGGSTFYADSVKGRFTISRDNSKNTLYLQMNRLRAEDTAVYYCARHDYSNYAYFDYWGQGTLVTVSSGGGGSGGGGSGGGGSEIVLTQSPGTLSLSPGERATLSCRASQSVRSSYLAWYQQKPGQAPRLLIYGASSRATGIPDRFSGSGSGTDFTLTISRLEPEDFAVYYCQQYGDLPFTFGPGTKVEIK no binding

Repeat with CD70-8 (scFv) scFv: QVQLVESGGGVVQPGRSLRLSCAASGFTFSSYGMHWVRQAPGKCLEWVAVIWYDGSDKYFADSVKGRFTISRDNSKNTLYLQMNSLRAEDTAVYYCARDGIAGARYVYFDYWGQGTLVTVSSGGGGSGGGGSGGGGSDIQMTQSPSSLSASVGDRVTITCRASQGISNYLAWFQQKPGKAPKSLIYAASSLQGGVPSKFSGSGSGTDFTLTISSLQPEDFATYYCQQYYNYPFTFGCGTTVDIK no binding

Repeat with CD70-34 (scFv, As m32) scFv: EVQLLESGGGLVQPGGSLRLSCAASGFTFSTYAMSWVRQAPGKGLEWVSTISDSGGSTFYADSVMGRFTISRDNSKNTLYLQMNSLRAEDTAVYYCARHDYSNYAFFDYWGQGTLVTVSSGGGGSGGGGSGGGGSEIVLTQSPATLSVSPGERATLSCRASQSVSSNLAWYQQKPGQAPRLLIYGASTRATGIPARFSGSGSGTEFTLAISRLEPEDFAVYYCQQYYSTPFTFGGGTKVEIK no binding
